- Method notes: Open-label drug-drug interaction study in healthy adults: plasma dapagliflozin PK
- Format: in vivo, human
- Protocol conditions: human, plasma, 10 mg, plasma; single 10 mg DAPA co-administered on Day 11 with 800 mg SPAR once daily for 10 days; n = 20; read-out: Cmax, geometric LSMs (DAPA + SPAR)
Observable: Cmax (ng/mL)
Numeric answer only, unit ng/mL assumed.

Data point: CCOc1ccc(Cc2cc([C@@H]3O[C@H](CO)[C@@H](O)[C@H](O)[C@H]3O)ccc2Cl)cc1 ; Cmax = 79.9

* * *

- Method notes: Open-label drug-drug interaction study in healthy adults: plasma dapagliflozin PK
- Type: in vivo, human
- Protocol conditions: human, plasma, 10 mg, plasma; single 10 mg DAPA co-administered on Day 11 with 800 mg SPAR once daily for 10 days; n = 20; read-out: AUC0-t, geometric LSMs (DAPA + SPAR)
Observable: AUC(0-t) (ng·h/mL)
Answer in ng·h/mL, number only, no unit symbol.

So, CCOc1ccc(Cc2cc([C@@H]3O[C@H](CO)[C@@H](O)[C@H](O)[C@H]3O)ccc2Cl)cc1 ? Its AUC(0-t) was 526
